Target: Stb4 (UniProt P50104)
Sequence (P50104 whole entry): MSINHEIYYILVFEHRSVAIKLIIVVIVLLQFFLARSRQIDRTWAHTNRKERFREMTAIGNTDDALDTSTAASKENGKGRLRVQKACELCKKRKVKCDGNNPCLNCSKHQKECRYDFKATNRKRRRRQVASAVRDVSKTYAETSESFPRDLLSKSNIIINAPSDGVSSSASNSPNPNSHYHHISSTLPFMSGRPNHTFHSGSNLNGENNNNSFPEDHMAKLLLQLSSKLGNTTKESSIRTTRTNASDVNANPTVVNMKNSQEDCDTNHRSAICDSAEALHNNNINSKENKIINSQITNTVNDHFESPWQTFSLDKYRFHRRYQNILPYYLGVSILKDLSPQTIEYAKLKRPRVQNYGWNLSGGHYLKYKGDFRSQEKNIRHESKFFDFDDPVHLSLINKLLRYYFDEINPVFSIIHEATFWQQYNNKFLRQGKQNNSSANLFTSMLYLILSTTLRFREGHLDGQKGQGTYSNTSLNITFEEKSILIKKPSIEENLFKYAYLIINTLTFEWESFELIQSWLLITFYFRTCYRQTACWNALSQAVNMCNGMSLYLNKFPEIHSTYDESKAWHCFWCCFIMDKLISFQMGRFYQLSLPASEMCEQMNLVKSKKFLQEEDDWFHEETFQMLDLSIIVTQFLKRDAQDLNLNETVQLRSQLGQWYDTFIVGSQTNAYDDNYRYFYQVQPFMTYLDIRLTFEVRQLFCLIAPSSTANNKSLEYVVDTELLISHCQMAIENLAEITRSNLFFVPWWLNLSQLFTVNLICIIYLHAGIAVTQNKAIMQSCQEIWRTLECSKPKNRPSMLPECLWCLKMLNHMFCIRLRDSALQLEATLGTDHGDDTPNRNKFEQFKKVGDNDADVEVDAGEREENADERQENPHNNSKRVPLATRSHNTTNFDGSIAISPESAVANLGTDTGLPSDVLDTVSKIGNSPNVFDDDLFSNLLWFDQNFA
Test: PBM E-score (8-mer binding enrichment) (E-score (-0.5 to 0.5)); higher = stronger / more preferred TF binding
Details: protein concentration: 200 nM; construct: GST-DNA-binding domain
The full ranking holds about 33,000 sequences; the median of “E-score (-0.5 to 0.5)” is about -0.056, and the highest 2% start at about 0.38. This is one part of a sample in which the highest values are shown more often than they occur.
# binarize PBM E-score: threshold 0.08 inclusive, high side yes (1), low side no (0)

Below, 5 sequences whose answers are already recorded.
[[record]]
sequence_input = "TTCCGGAA"
system = "Stb4 (UniProt P50104)"
class_name = "yes (1)"

[[record]]
sequence_input = "TTACGGAA"
system = "Stb4 (UniProt P50104)"
class_name = "yes (1)"

[[record]]
sequence_input = "CCCGGAAA"
system = "Stb4 (UniProt P50104)"
class_name = "yes (1)"

[[record]]
sequence_input = "CTAAAATC"
system = "Stb4 (UniProt P50104)"
class_name = "no (0)"

[[record]]
sequence_input = "TCCGGAGA"
system = "Stb4 (UniProt P50104)"
class_name = "yes (1)"


Does CACGCTTC have a reported PBM E-score of at least 0.08? no (0)

Identify whether the reported PBM E-score of the following sequence is 0.08 or greater: GATAAGCA yes (1)
